test system: MOLT-4 leukemia; assay: NCI-60 one-dose screen, 48 h (100 = growth as untreated, 0 = no growth, -100 = all killed); details: 10 µM
The panel holds about 83,000 compounds, 20% with a hit somewhere; the sample as a whole holds those more often.
assay_metric: growth (%)
# unit: % | format: bare number

Some entries whose results are on file:
* COc1cc2c(cc1OC)N(CCO)C1=C(C(=O)OC1)C2c1ccc(Cl)c(Cl)c1 (stereo not given) | 73.7
* COc1ccc(-n2c(SCc3cc(OC)c(OC)c(OC)c3)nc3ccc(C)cc3c2=O)cc1 | 56
* CN(C)CCN1C(=O)c2cccc3cc(N)cc(c23)C1=O | -2.12
* C#Cc1ccc(-n2c(/C=C/c3ccc(Cl)c(F)c3)nc3ncccc3c2=O)cc1 | -18.6
* CCN(CC)CCCOCCCNc1cc(OC)cc2cccnc12 | 105
* COc1ccc(N=C2C(=Nc3ccc(OC)cc3)N(c3ccc(N(C)C)cc3)C(=S)N2c2ccc(OC)cc2)cc1 | 10.8

Fill in the blank: the reported growth of "O=C1/C(=C\c2ccccc2)CN(C(=O)c2ccccc2)C/C1=C\c1ccccc1" is ____.
2.87

Proceed to "COC(=O)C1=NNC(=S)N(c2cc(C)[nH]n2)C(=O)C1"
84.1

Proceed to COc1cccc(C2C3=C(COC3=O)N(CCO)c3cc(OC)ccc32)c1 (stereo not given)
19

Proceed to COc1cccc(NC(=O)c2sc3nc4c(cc3c2N)C(O)CCC4)c1 (stereo not given)
6.41

###

test system: SF-268 CNS; test: NCI-60 one-dose screen, 48 h (100 = growth as untreated, 0 = no growth, -100 = all killed); settings: 10 µM
Compounds without any hit were thinned out: in the full panel of roughly 83,000, 20% have a hit.
The reader will find reported growth values listed item by item below.
# unit: % | format: bare number

Some entries whose results are on file:
- COc1ccc2c(c1)sc1nc(-c3ccccc3)c(-c3cccnc3)n12: 111
- S=c1[nH]ccn1-c1c(Cl)cccc1Cl: 118

Fill in the blank: the reported growth of "COc1ccc(-c2nc3sc(-c4ccc(OC)cc4)c(-c4ccc(OC)cc4)n3c2/C=C/c2ccc(C(C)C)cc2)cc1" is ____.
106

Proceed to "FC(F)(F)c1ccc2nc(-c3nc(-c4ccccc4)n4ccccc34)[nH]c2c1"
49.1

Proceed to O=C(NC(Cc1ccc(O)cc1)C(=O)N=Nc1c(O)[nH]c2ccccc12)c1ccccc1 (stereo not drawn)
97.8

###

system: HCT-15 colon; assay: NCI-60 one-dose screen, 48 h (100 = growth as untreated, 0 = no growth, -100 = all killed); conditions: 10 µM
Compounds without any hit were thinned out: in the full panel of roughly 83,000, 20% have a hit.
Classes are defined on growth with ranges bottom bin = under 30%, middle bin = from 30% up to 80%, top bin = 80% and over

Examples from the recorded data:
- CCCCCCc1cc(N=Nc2ccc(S(=O)(=O)Nc3cc(C)nc(C)n3)cc2)c(O)cc1O: top bin
- CCCC1(CC(=O)O)OCCc2c1[nH]c1ccccc21 (configuration not stated): top bin
- Cc1nc2c(c(=O)[nH]1)OCN(Cc1ccccc1)C2: top bin
- CC/C(=N\N=C(/CC)c1ccc(Br)cc1)c1ccc(Br)cc1: top bin
- CN(C)CCNC(=O)c1cccn2c(=O)c3cc4ccccc4cc3nc12: bottom bin
- CCCC(F)C(=O)O (configuration not stated): top bin

Classify this compound: "Cc1nc2ccc(CN(C)c3ccc(C(=O)N[C@@H](CCC(=O)O)C(=O)O)s3)cc2c(=O)[nH]1"
middle bin

Proceed to "O=[N+]([O-])c1cccc(-c2ncc(-c3ccc(Cl)cc3Cl)[nH]2)c1"
bottom bin

Proceed to "Clc1ccc(Nc2ccnc(NCCNc3ccnc4cc(Cl)ccc34)n2)cc1"
bottom bin

Proceed to "CCOC(=O)C(=Cc1ccc(Br)cc1)C(=O)OCC"
bottom bin

Proceed to "Clc1ccccc1N=Cc1ccc2c(c1)OCO2"
top bin
